- Tested on: Sclerotinia sclerotiorum
- Test details: Fungicide activity, mycelial growth inhibition on PDA plate
- Format: cell-based
- Condition: Sclerotinia sclerotiorum, 50 μg/mL, S. sclerotiorum; read-out: Fungicidal activity inhibition, SS
Measured metric: inhibition at 50 µg/mL

# C#CCNC(=O)/C(=N/OC)c1ccccc1CO/N=C(\C)c1snc(Cl)c1Cl [CL04-22B] with Sclerotinia sclerotiorum: inhibition at 50 µg/mL is 100%

Reading of inhibition at 50 µg/mL for C#CCNC(=O)/C(=N/OC)c1ccccc1CO/N=C(\N)c1snc(Cl)c1Cl [CL04-25A] with Sclerotinia sclerotiorum: 46.7%

Result for CO/N=C(/C(=O)OC)c1ccccc1CO/N=C/c1snc(Cl)c1Cl [CL04-15B] , tested on Sclerotinia sclerotiorum, inhibition at 50 µg/mL: 90%

For CO/N=C(/C(=O)NC1CC1)c1ccccc1CO/N=C(C)/C=C/c1snc(Cl)c1Cl [CL04-32C] on Sclerotinia sclerotiorum, measured inhibition at 50 µg/mL was 73.3%

Fill in: Sclerotinia sclerotiorum inhibition at 50 µg/mL for CO/C=C(/C(=O)OC)c1ccccc1CO/N=C(\C)CC(O)c1snc(Cl)c1Cl (centres unmarked) = 90%
